Assay comment: Mouse pharmacokinetics studies
Reported conditions: female, CD-1, mouse, plasma, po, 100 mg/kg
Result type: AUC(0-t) (ng·h/mL)
Give just the number in ng·h/mL; leave the unit off.

Q: Please indicate AUC(0-t) recorded for COc1ccc(OC)c(-c2ccc(-c3cn(CCc4ccc(C(=O)N(C)C)cc4)nn3)cn2)c1
A: 33300

###

Target desc: Pks13-TE (Mycobacterium tuberculosis, UniProt I6X8D2)
Sequence (I6X8D2 1451-1733 limits assumed): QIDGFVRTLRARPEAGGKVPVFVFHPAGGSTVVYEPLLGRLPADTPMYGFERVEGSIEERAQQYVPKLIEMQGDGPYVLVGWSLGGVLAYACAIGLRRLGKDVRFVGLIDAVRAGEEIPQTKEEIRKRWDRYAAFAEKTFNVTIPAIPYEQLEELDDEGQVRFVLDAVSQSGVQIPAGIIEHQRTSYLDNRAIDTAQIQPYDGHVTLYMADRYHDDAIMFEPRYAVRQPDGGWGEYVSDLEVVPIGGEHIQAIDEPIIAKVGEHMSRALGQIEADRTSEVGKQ
Assay comment: biochemical
Format: binding
Reported conditions: read-out: IC50
Each entry below lists one item and its recorded IC50 value.

Q: Please indicate IC50 recorded for Cc1cccc2cc(-c3cn(CCc4ccc(C(=O)N(C)C)cc4)nn3)cnc12
A: > 10 µM

Q: Please indicate IC50 recorded for COc1ccc(OC)c(-c2ccc(-c3nc(N(C)Cc4ccc(C(=O)N(C)C)cc4)no3)cn2)c1
A: > 20 µM

Q: Please indicate IC50 recorded for Cn1ncc2cc(CCn3cc(-c4ccc(OCc5ccccc5)nc4)nn3)ccc21
A: > 10 µM

***
Q: Please indicate IC50 recorded for Cc1cc(C(=O)NCc2ccccc2)nc(N2CCC(C(=O)N3CCN(C(=O)c4ccc5nc(C)ccc5c4)CC3)CC2)n1
A: 0.62 µM

Q: Please indicate IC50 recorded for COc1ccc(OC)c(-c2ccc(-c3cn(CCc4ccc(-c5nccn5C)cc4)nn3)cn2)c1
A: 0.5 µM

###

Target desc: Pks13-TE (Mycobacterium tuberculosis, UniProt I6X8D2)
Assay comment: biochemical
Format: binding
Reported conditions: IC50 (uM)
Result type: IC50 (µM)
Give just the number in µM; leave the unit off.

Please review the following examples before continuing.
Q: Please indicate IC50 recorded for COc1ccc2[nH]c(C(=O)N3CCN(C(=O)C4CCN(c5nc(C)cc(C(=O)NCc6ccccc6)n5)CC4)CC3)cc2c1OC
A: 0.48

Q: Please indicate IC50 recorded for Cc1cc(C(=O)NCc2ccccc2)nc(N2CCC(CN3CCN(C(=O)c4cnc5c(C)cccc5c4)CC3)CC2)n1
A: 0.46

Q: Please indicate IC50 recorded for Cc1cccc2cc(C(=O)N3CCN(C(=O)C4CCN(c5nccc(C(=O)NCc6ccccc6)n5)CC4)CC3)cnc12
A: 0.39

Next, consider the following molecule.
Q: Please indicate IC50 recorded for Cc1cccc(-c2ccc(-c3cn(CCc4ccc(C(=O)N(C)C)cc4)nn3)cn2)c1C
A: 0.47

###

Target desc: Pks13-TE (Mycobacterium tuberculosis, UniProt I6X8D2)
Assay comment: biochemical
Type: binding
Reported conditions: IC50 (uM)
Each entry below lists one item and its recorded log10(IC50) value.
Each number you see is log10 of IC50, and the unit inside the log is µM.

Please review the following examples before continuing.
Q: Please indicate log10(IC50) recorded for Cc1cc(C(=O)NCc2ccccc2)nc(N2CCC(C(=O)N3CCN(C(=O)c4cnc5c(C)cccc5c4)CC3)CC2)n1
A: -0.07

Q: Please indicate log10(IC50) recorded for COc1ccc(OC)c(-c2ncc(-c3cn(CCc4ccc(C(=O)N(C)C)cc4)nn3)cn2)c1
A: -0.24

Q: Please indicate log10(IC50) recorded for CC(=O)N1CCN(C(=O)C2CCN(c3nc(C)cc(C(=O)NCc4ccccc4)n3)CC2)CC1
A: 1.18

Q: Please indicate log10(IC50) recorded for Cc1ccccc1-c1ncc(-c2cn(CCc3ccc(C(=O)N(C)C)cc3)nn2)s1
A: -0.43

Q: Please indicate log10(IC50) recorded for COc1ccc(OC)c(-c2ncc(-c3cn(CCc4ccc(C(=O)N(C)C)cc4)nn3)cc2C)c1
A: -0.24

Next, consider the following compound.
Q: Please indicate log10(IC50) recorded for COc1ccc(OC)c(-c2ccc(-c3cn(CCc4ccc(C(=O)N(C)C)cc4)nn3)cn2)c1
A: -0.37

###

Target desc: Pks13-TE (Mycobacterium tuberculosis)
Assay comment: biochemical
Assay type: binding
Reported conditions: read-out: IC50
Doc: threshold 0.6 µM (exclusive). Items with IC50 beneath it return Met; others return Not met.

Example cases with answers are listed next.
Q: Is IC50 strictly under 0.6 µM for the entry CNC(=O)c1cc(C(C)C)nc(N2CCC(C(=O)N3CCN(C(=O)c4ccc(-n5nc(C)cc5C)nc4)CC3)CC2)n1 ?
A: Not met

Q: Is IC50 strictly under 0.6 µM for the entry COc1ccn2nc(C(=O)N3CCN(C(=O)C4CCN(c5nc(C)cc(C(F)(F)F)n5)CC4)CC3)cc2c1 ?
A: Not met

***
Q: Is IC50 strictly under 0.6 µM for the entry Cn1ncc2cc(CCn3cc(-c4ccc(-c5cc(C(F)(F)F)ccc5F)nc4)nn3)ccc21 ?
A: Not met

Q: Is IC50 strictly under 0.6 µM for the entry COc1ccc(OC)c(-n2ncc(-c3cn(CCc4ccc(C(=O)N(C)C)cc4)nn3)c2C)c1 ?
A: Not met

###

Target desc: Pks13-TE (Mycobacterium tuberculosis, UniProt I6X8D2)
Assay comment: biochemical
Result type: pIC50
Just so you know, pIC50 here is -log10 of the concentration in molar units; reply with that number alone.

Q: State pIC50 on Pks13-TE (Mycobacterium tuberculosis, UniProt I6X8D2). Entry: CC(=O)N1CCN(C(=O)C2CCN(c3nc(C)cc(C(=O)NCc4ccccc4)n3)CC2)CC1
A: 4.82

Next, consider the following compound.
Q: State pIC50 on Pks13-TE (Mycobacterium tuberculosis, UniProt I6X8D2). Entry: COCC1(CN(C)C(=O)c2ccc(CCn3cc(-c4ccc(-c5cc(OC)ccc5OC)nc4)nn3)cc2)CC1
A: 7.24

###

Target desc: Pks13-TE (Mycobacterium tuberculosis)
Assay comment: biochemical
Format: binding
Reported conditions: IC50 (enzyme inhibition)
Result type: pIC50
Just so you know, pIC50 here is -log10 of the concentration in molar units; reply with that number alone.

Q: Please indicate pIC50 recorded for COc1ccc(OC)c(-c2ccc(-c3cn(CCc4ccc(C(=O)N(C)C)cc4)nn3)cn2)c1
A: 6.40

###

Assay comment: Mouse pharmacokinetics studies
Reported conditions: female, CD-1, mouse, plasma, po, 200 mg/kg
Result type: AUC(0-t)

Q: Please indicate AUC(0-t) recorded for COc1ccc(OC)c(-c2ccc(-c3cn(CCc4ccc(C(=O)N(C)C)cc4)nn3)cn2)c1
A: 98100 ng·h/mL

###

Test system: pks13-TetON +ATc (Pks13-hypermorph)
Assay type: cell-based, Mycobacterium tuberculosis
Each entry below lists one item and its recorded Hypermorph MIC fold shift (+ATc/WT) value.
Give just the number in fold; leave the unit off.

Please review the following examples before continuing.
Q: State Hypermorph MIC fold shift (+ATc/WT) on pks13-TetON +ATc (Pks13-hypermorph). Entry: COCC1(CN(C)C(=O)c2ccc(CCn3cc(-c4ccc(-c5cc(OC)ccc5OC)nc4)nn3)cc2)CC1
A: 2.3

Q: State Hypermorph MIC fold shift (+ATc/WT) on pks13-TetON +ATc (Pks13-hypermorph). Entry: Cc1cc(C(=O)NCc2ccccc2)nc(N2CCC(CN3CCN(C(=O)c4cnc5c(C)cccc5c4)CC3)CC2)n1
A: 6.1

Q: State Hypermorph MIC fold shift (+ATc/WT) on pks13-TetON +ATc (Pks13-hypermorph). Entry: Cc1cc(CNC(=O)c2cc(C)nc(N3CCC(C(=O)N4CCN(C(=O)c5ccc6nc(C)ccc6c5)CC4)CC3)n2)cc(C)n1
A: 1.8

Q: State Hypermorph MIC fold shift (+ATc/WT) on pks13-TetON +ATc (Pks13-hypermorph). Entry: Cc1cc(C(=O)NCc2ccncc2)nc(N2CCC(C(=O)N3CCN(C(=O)c4cnc5c(C)cccc5c4)CC3)CC2)n1
A: 3.9

Q: State Hypermorph MIC fold shift (+ATc/WT) on pks13-TetON +ATc (Pks13-hypermorph). Entry: COc1ccc(Cl)cc1-c1ccc(-c2cn(CCc3ccc(C(=O)N(C)C)cc3)nn2)cn1
A: 5.4

***
Q: State Hypermorph MIC fold shift (+ATc/WT) on pks13-TetON +ATc (Pks13-hypermorph). Entry: COc1ccc(OC)c(-c2ccc(-c3cn(CCc4ccc(C(=O)N(C)C)cc4)nn3)cn2)c1
A: 2.3

Q: State Hypermorph MIC fold shift (+ATc/WT) on pks13-TetON +ATc (Pks13-hypermorph). Entry: COc1ccc(OC)c(-c2ccc(-c3cn(CCc4ccncc4)nn3)cn2)c1
A: 2.7

Q: State Hypermorph MIC fold shift (+ATc/WT) on pks13-TetON +ATc (Pks13-hypermorph). Entry: Cc1cc(C(=O)NCc2ccccc2)nc(N2CCC(C(=O)N3CCN(C(=O)c4ccc5nc(C)sc5c4)CC3)CC2)n1
A: 5.4

###

System: WT H37Rv
Assay comment: microbe, parasite or virus in culture
Assay type: cell-based, Mycobacterium tuberculosis
Each entry below lists one item and its recorded WT H37Rv MIC value.
Give just the number in µM; leave the unit off.

Q: State WT H37Rv MIC on WT H37Rv. Entry: Cc1cc(C(=O)NCc2ccccc2)nc(N2CCC(C(=O)N3CCN(C(=O)c4ccc5nc(C)sc5c4)CC3)CC2)n1 [X21408]
A: 0.10

***
Q: State WT H37Rv MIC on WT H37Rv. Entry: Cc1cc(C(=O)NCc2ccccc2)nc(N2CCC(C(=O)N3CCN(C(=O)c4cc5c(Cl)cccn5n4)CC3)CC2)n1 [X22324]
A: 0.22

Q: State WT H37Rv MIC on WT H37Rv. Entry: COc1ccc(OC)c(-c2ccc(-c3cn(CCc4ccncc4)nn3)cn2)c1 [X21498]
A: 0.26

Origin of values: paper PMC11091879
